Test: inhibitors of VEEV TC-83 cytopathic effect, confirmation, Vero cells (AID 588727)
Conditions: VEEV TC-83 cytopathic effect inhibition, at 20 µM; hits give high values unless noted
The campaign covered roughly 350,000 compounds. About 450 (0.13%) were called active. A selection follows. Entries with a potency or affinity are not part of this list.
Form field: inhibition (one value per entry).
Report only the number, with the unit % understood.

Past entries and their recorded results:
{"molecule": "COc1ccccc1CCC(=O)OCC(=O)NC1CC1", "unit_abbreviation": "%", "inhibition": 2.29}
{"molecule": "Cc1ccc(NC(=O)CSc2ccc(-c3ccccn3)nn2)cc1", "unit_abbreviation": "%", "inhibition": 0.64}
{"molecule": "O=C(COc1ccc(-c2ccccc2)cc1)NNC(=O)NC1CCCCC1", "unit_abbreviation": "%", "inhibition": 0.67}
{"molecule": "Cc1oc(-c2ccc(Cl)cc2)nc1CN1CCC(C(=O)NCC2CCCO2)CC1 (stereo not given)", "unit_abbreviation": "%", "inhibition": 0.22}

INPUT: Item CCOC(=O)c1c(-c2ccccc2)oc2cc(CN(C)C)c(O)c(CN(C)C)c12 : provide inhibition
OUTPUT: 2.26

INPUT: Indicate the recorded inhibition value for this molecule: CN(c1ccc(OCC(=O)Nc2cc(Cl)ccc2C(=O)O)cc1)S(=O)(=O)c1ccc(F)cc1
OUTPUT: 1.87

###

Experiment: inhibitors of VEEV TC-83 cytopathic effect, confirmation, Vero cells (AID 588727)
Conditions: VEEV TC-83 cytopathic effect inhibition, at 20 µM; hits give high values unless noted
The campaign covered roughly 350,000 compounds. About 450 (0.13%) were called active. The list is a sample of the results. Potency and affinity values are given separately.
Class field: derived from inhibition; ranges range 1: < 1%; range 2: ≥ 1% and < 3%; range 3: ≥ 3%

Sample answers from the record:
{"compound": "O=C(COC(=O)/C=C/c1ccc(F)cc1)NC1CCCC1", "assigned_label": "range 2"}
{"compound": "CCOC1CCCC(n2cnc3c(=S)nc[nH]c32)O1 (stereo unspecified)", "assigned_label": "range 2"}
{"compound": "CCOC(=O)C1CCCc2c1[nH]c1ccc(Cl)cc21 (stereo unspecified)", "assigned_label": "range 1"}
{"compound": "Cc1cc(-c2nnc(SCC(=O)Nc3ccccc3C(F)(F)F)n2N)n[nH]1", "assigned_label": "range 2"}
{"compound": "Cc1ccccc1NC(=O)NCCCN1CCN(C)CC1", "assigned_label": "range 1"}

INPUT: Looking at CC(=O)c1c(C)[nH]c(C(=O)NC2CCSc3ccccc32)c1C (stereo unspecified) , which class would you pick?
OUTPUT: range 3

INPUT: Lab note: which band did CC(=O)c1ccc(Nc2nc(=O)c3cccnc3s2)cc1 land in?
OUTPUT: range 2

INPUT: Given COc1ccc(CCNC(=O)Cn2c(=O)oc3cc(Cl)ccc32)cc1OC , name the class its inhibition places it in.
OUTPUT: range 2

INPUT: Form field 'band' for O=C(NC(Cc1c[nH]c2ccccc12)C(=O)N/N=C/c1ccc(Cl)cc1)c1cccs1 (stereo unspecified)
OUTPUT: range 3

INPUT: GET /class?item= COc1ccc(CC(=O)OCC(=O)Nc2ncc(Cl)c(C)c2Cl)cc1
OUTPUT: range 3

INPUT: Would you mind sorting O=C(NC(Cc1c[nH]c2ccccc12)C(=O)O)c1cccs1 (stereo unspecified) into the appropriate category?
OUTPUT: range 1
